TEST SYSTEM: Mitogen-activated protein kinase 7 (Homo sapiens)
TEST DETAILS: Gal4-ERK5 driven luciferase induction – cell-based, HTS, primary screen (AID 1508626);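 further: luciferase driven by Gal4-ERK5 fusion binding five Gal4 sites before minimal TATA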
CONDITION PARAMETERS: HeLa Gal4-ERK5 transactivation, 18 h, at 5 µM, hits give high values
Active and inactive are the calls of the source.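 How the source made its calls: active means luciferase signal above three times the same-plate solvent-only control wells; inactive means the rest.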
For each entry below, report its luciferase signal value.

*Q* Would you kindly share the measured luciferase signal for COc1cc2c(cc1OC)C(=O)C(CC1CCN(Cc3ccccc3)CC1)C2 (stereo not drawn) ?
*A* 32 AU (inactive)

*Q* Another compound: CCOc1ccc(NC(C)=O)cc1
*A* 68 AU (inactive)

*Q* Another compound: NC(=O)N/N=C/c1ccc([N+](=O)[O-])o1
*A* 36 AU (inactive)

*Q* Another compound: C[C@@](Cc1ccc(O)c(O)c1)(NN)C(=O)O
*A* 56 AU (inactive)

*Q* Another compound: CCN(CCCCOC(=O)c1ccc(OC)c(OC)c1)C(C)Cc1ccc(OC)cc1 (stereo not drawn)
*A* 52 AU (inactive)

*Q* Another compound: O=C1OC(c2ccc(O)cc2)(c2ccc(O)cc2)c2ccccc21
*A* 84 AU (inactive)

*Q* Another compound: NC(N)=NCCN1CCCCCCC1
*A* 32 AU (inactive)

*Q* Another compound: NCCCCCC(=O)O
*A* 40 AU (inactive)

*Q* Another compound: CN1CCC(=C2c3ccccc3C=Cc3ccccc32)CC1
*A* 20 AU (inactive)

*Q* Another compound: CCc1oc2ccccc2c1C(=O)c1cc(Br)c(O)c(Br)c1
*A* 52 AU (inactive)

*Q* Another compound: O=c1ccc2ccccc2o1
*A* 48 AU (inactive)

*Q* Another compound: C[C@@H]1C[C@H]2[C@@H]3CCC4=CC(=O)C=C[C@]4(C)[C@@]3(F)[C@@H](O)C[C@]2(C)[C@H]1C(=O)CO
*A* 32 AU (inactive)

*Q* Another compound: COc1cc(NS(=O)(=O)c2ccc(N)cc2)nc(OC)n1
*A* 48 AU (inactive)

*Q* Another compound: CC1(C)O[C@@H]2C[C@H]3[C@@H]4C[C@H](F)C5=CC(=O)CC[C@]5(C)[C@H]4[C@@H](O)C[C@]3(C)[C@]2(C(=O)CO)O1
*A* 228 AU (inactive)

*Q* Another compound: CC(=O)NS(=O)(=O)c1ccc(N)cc1
*A* 64 AU (inactive)

*Q* Another compound: NS(=O)(=O)c1cc2c(cc1Cl)NC(CSCc1ccccc1)=NS2(=O)=O
*A* 88 AU (inactive)

*Q* Another compound: C[n+]1cc2c3c(ccc2c2ccc4cc5c(cc4c21)OCO5)OCO3
*A* 84 AU (inactive)

*Q* Another compound: O=c1[nH]cnc2nc[nH]c12
*A* 60 AU (inactive)
